# Test system: RXF 393 renal
# PROTOCOL_SUMMARY: NCI tumour cell line growth inhibition, 48 h
Recorded TGI by entry

Worked examples follow.
[N-]=[N+]=Nc1cc(=O)oc2ccccc12    > 100 µM
O=S1(=O)c2ccccc2NC(c2ccc3ccccc3c2)CC1c1ccccc1F (stereo unspecified)    > 100 µM
O=C1C2C(C(=O)N1OS(=O)(=O)c1ccccc1)N(Cc1ccccc1)C(=O)N2Cc1ccccc1 (stereo unspecified)    > 100 µM
Cc1cc(=O)[nH]c(NN2C(Cl)C(=O)C2c2ccccc2O)n1 (stereo unspecified)    > 100 µM
O=C(/C=C/C12c3ccccc3C(c3ccccc31)C1C(=O)NC(=O)C12)c1ccncc1 (stereo unspecified)    3.27 µM
CC(C)C/C(CC(=O)CCC(=O)Nc1ccccc1[N+](=O)[O-])=N\NC(=O)c1cc2ccccc2cc1O    > 100 µM

In one line, give reported TGI of the entry O=S(=O)(NC1=NCCN1C(=S)SN1CCn2c1nsc2=S)c1ccc(OC(F)(F)F)cc1 .
8.1 µM

Kindly indicate its recorded TGI. Item: NNC(=O)Nc1cccnc1
> 100 µM
